Target: human TLR8 (Homo sapiens (Human), UniProt Q9NR97)
Sequence (Q9NR97 27-1041): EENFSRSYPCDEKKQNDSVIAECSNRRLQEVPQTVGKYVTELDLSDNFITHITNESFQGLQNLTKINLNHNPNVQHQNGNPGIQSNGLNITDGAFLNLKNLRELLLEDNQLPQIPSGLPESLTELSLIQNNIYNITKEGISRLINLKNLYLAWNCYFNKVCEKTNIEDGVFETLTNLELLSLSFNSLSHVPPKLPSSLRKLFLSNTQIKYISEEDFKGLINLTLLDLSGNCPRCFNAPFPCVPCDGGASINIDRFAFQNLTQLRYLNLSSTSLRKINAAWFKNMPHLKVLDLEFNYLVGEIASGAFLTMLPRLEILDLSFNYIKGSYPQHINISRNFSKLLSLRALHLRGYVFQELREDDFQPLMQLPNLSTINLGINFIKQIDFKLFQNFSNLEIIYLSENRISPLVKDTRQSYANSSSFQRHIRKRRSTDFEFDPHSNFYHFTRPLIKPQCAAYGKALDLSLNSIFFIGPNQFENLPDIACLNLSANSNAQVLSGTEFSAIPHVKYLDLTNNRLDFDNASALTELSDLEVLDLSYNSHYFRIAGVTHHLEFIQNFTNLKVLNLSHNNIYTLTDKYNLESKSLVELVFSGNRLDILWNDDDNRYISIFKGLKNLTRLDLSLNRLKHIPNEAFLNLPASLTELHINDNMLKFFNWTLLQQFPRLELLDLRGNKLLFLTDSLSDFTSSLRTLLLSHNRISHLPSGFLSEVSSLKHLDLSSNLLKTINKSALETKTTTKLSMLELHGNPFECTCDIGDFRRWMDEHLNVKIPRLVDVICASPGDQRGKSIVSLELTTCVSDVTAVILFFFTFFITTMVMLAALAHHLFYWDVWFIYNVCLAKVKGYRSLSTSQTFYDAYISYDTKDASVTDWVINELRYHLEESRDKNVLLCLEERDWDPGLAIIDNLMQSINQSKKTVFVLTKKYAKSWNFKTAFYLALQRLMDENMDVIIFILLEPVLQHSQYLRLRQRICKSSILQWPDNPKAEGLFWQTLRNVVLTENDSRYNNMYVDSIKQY
Assay: TLR8 inhibition reporter assay (HEK-Blue SEAP)
Conditions: read-out: TLR8 IC50; HEK-Blue cells overexpressing human TLR8, R848 15.9 μM stimulation, SEAP reporter
pIC50: −log10 of the molar value.
pIC50 values by entry

Compound: COc1cc(-c2[nH]c3cnc(N4CC5(CNC5)C4)c(F)c3c2C(C)C)cn2ncnc12 [Example 355]
pIC50: 7.66

Compound: Cc1c(-c2[nH]c3cnc(C4CCC(NC5COC5)CC4)c(C)c3c2C(C)C)cn2ncnc2c1C (centres unmarked) [Example 121]
pIC50: 8.23

Compound: COCCNC1CCC(c2cc3c(C(C)C)c(-c4cn5ncnc5c(C)c4C)[nH]c3cn2)CC1 (centres unmarked) [Example 347]
pIC50: 7.52

Compound: Cc1c(-c2[nH]c3cnc(N4CCN(C5CCOCC5)CC4)c(C)c3c2C(C)C)cn2ncnc2c1C [Example 418]
pIC50: 8.66

Compound: CNC(=O)CNC1CCN(c2cc3c(C(C)C)c(-c4cc(OC)c5ncnn5c4)[nH]c3cn2)CC1 [Example 329]
pIC50: 8.13

Compound: CNC(=O)CN1CCC(c2cc3c(C(C)C)c(-c4cn5ncnc5c(C)c4C)[nH]c3cn2)CC1 [Example 26]
pIC50: 8.16

Compound: COc1cc(-c2[nH]c3cnc(C4CCC(N5CC6(COC6)C5)CC4)c(C)c3c2C(C)C)cn2ncnc12 (centres unmarked) [Example 245]
pIC50: 7.33

Compound: COc1cc(-c2[nH]c3cnc(N4CCN(CC(N)=O)CC4)c(F)c3c2C(C)C)cn2ncnc12 [Example 358]
pIC50: 8.42

Compound: CNCC(=O)N1CCN(c2ncc3[nH]c(-c4cc(OC)c5ncnn5c4)c(C(C)C)c3c2C)CC1 [Example 98]
pIC50: 7.85

Compound: Cc1cc(-c2[nH]c3cnc(C4CCN(C(C)C)CC4)c(F)c3c2C(C)C)cn2ncnc12 [Example 212]
pIC50: 8.42

Compound: COc1cc(-c2[nH]c3cnc(N4CC5(C4)CN(C4CCOCC4)C5)c(F)c3c2C(C)C)cn2ncnc12 [Example 370]
pIC50: 6.76

Compound: Cc1cc(-c2[nH]c3cnc(N4CCC(N(C)C)CC4)c(F)c3c2C(C)C)cn2ncnc12 [Example 256]
pIC50: 8.92

Compound: COc1cc(-c2[nH]c3cnc(C4CCN(C(=O)CN(C)C)CC4)cc3c2C(C)C)cn2ncnc12 [Example 343]
pIC50: 6.72

Compound: CNC(=O)CN(C)C1CCN(c2ncc3[nH]c(-c4cc(C)c5ncnn5c4)c(C(C)C)c3c2F)CC1 [Example 259]
pIC50: 8.59

Compound: Cc1c(-c2[nH]c3cnc(C4CCC(NCC(F)F)CC4)cc3c2C(C)C)cn2ncnc2c1C (centres unmarked) [Example 336]
pIC50: 7.44

Compound: CNC1CCN(c2ncc3[nH]c(-c4cc(C)c5ncnn5c4)c(C(C)C)c3c2F)CC1 [Example 71]
pIC50: 9.19

Compound: COc1cc(-c2[nH]c3cnc(C4CCN(C5COC5)CC4)c(F)c3c2C(C)C)cn2ncnc12 [Example 38]
pIC50: 7.92

* * *

Target: human TLR8 (Homo sapiens (Human), UniProt Q9NR97)
Assay: TLR8 inhibition reporter assay (HEK-Blue SEAP);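 further: SEAP driven by IFN-β minimal promoter with five NF-κB and AP-1 sites, compounds tested 0.05 nM to 50 µM, 22 h incubation, inhibition relative to agonist plus DMSO wells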
Conditions: read-out: TLR8 IC50; HEK-Blue cells overexpressing human TLR8, R848 15.9 μM stimulation, SEAP reporter
log10(IC50) values by entry
Metric: log10(IC50) (log10 of the value in nM)

Compound: COc1cc(-c2[nH]c3cnc(N4CCN(C5COC5)C[C@H]4C)c(F)c3c2C(C)C)cn2ncnc12
Assay Target: human TLR8 (Homo sapiens (Human), UniProt Q9NR97)
Readout Number: 1.79

Compound: COc1cc(-c2[nH]c3cnc(C4CCN(CC(=O)N(C)C)CC4)c(C)c3c2C(C)C)cn2ncnc12
Assay Target: human TLR8 (Homo sapiens (Human), UniProt Q9NR97)
Readout Number: 1.59

Compound: COc1cc(-c2[nH]c3cnc(N4CCN(C5CCCOC5)CC4)c(F)c3c2C(C)C)cn2ncnc12 (single isomer, unassigned) [Example 387]
Assay Target: human TLR8 (Homo sapiens (Human), UniProt Q9NR97)
Readout Number: 1.11

Compound: Cc1c(-c2[nH]c3cnc(N4CCN(C(=O)CN(C)C)CC4)c(C)c3c2C(C)C)cn2ncnc2c1C
Assay Target: human TLR8 (Homo sapiens (Human), UniProt Q9NR97)
Readout Number: 0.23

Compound: COc1cc(-c2[nH]c3cnc(N4CCN(CC#N)CC4)c(F)c3c2C(C)C)cn2ncnc12
Assay Target: human TLR8 (Homo sapiens (Human), UniProt Q9NR97)
Readout Number: -0.29

Compound: Cc1c(-c2[nH]c3cnc(C4CCC(N5CC6(COC6)C5)CC4)c(F)c3c2C(C)C)cn2ncnc2c1C (centres unmarked)
Assay Target: human TLR8 (Homo sapiens (Human), UniProt Q9NR97)
Readout Number: -0.08

Compound: COc1cc(-c2[nH]c3cnc(N4CCC(NCC(C)(C)C)CC4)c(C)c3c2C(C)C)cn2ncnc12
Assay Target: human TLR8 (Homo sapiens (Human), UniProt Q9NR97)
Readout Number: -0.48

Compound: COc1cc(-c2[nH]c3cnc(N4CCC(NC5CCOCC5)CC4)c(F)c3c2C(C)C)cn2ncnc12
Assay Target: human TLR8 (Homo sapiens (Human), UniProt Q9NR97)
Readout Number: -0.60

Compound: CCN(C)C1CCC(c2cc3c(C(C)C)c(-c4cc(OC)c5ncnn5c4)[nH]c3cn2)C1 (centres unmarked) [Example 177]
Assay Target: human TLR8 (Homo sapiens (Human), UniProt Q9NR97)
Readout Number: 0.60

Compound: Cc1cc(-c2[nH]c3cnc(N4CCC(N(C)C5COC5)CC4)c(F)c3c2C(C)C)cn2ncnc12
Assay Target: human TLR8 (Homo sapiens (Human), UniProt Q9NR97)
Readout Number: -0.12

* * *

IC50 values by entry
Target: human TLR9 (Homo sapiens (Human))
Sequence (Q9NR96 26-1032): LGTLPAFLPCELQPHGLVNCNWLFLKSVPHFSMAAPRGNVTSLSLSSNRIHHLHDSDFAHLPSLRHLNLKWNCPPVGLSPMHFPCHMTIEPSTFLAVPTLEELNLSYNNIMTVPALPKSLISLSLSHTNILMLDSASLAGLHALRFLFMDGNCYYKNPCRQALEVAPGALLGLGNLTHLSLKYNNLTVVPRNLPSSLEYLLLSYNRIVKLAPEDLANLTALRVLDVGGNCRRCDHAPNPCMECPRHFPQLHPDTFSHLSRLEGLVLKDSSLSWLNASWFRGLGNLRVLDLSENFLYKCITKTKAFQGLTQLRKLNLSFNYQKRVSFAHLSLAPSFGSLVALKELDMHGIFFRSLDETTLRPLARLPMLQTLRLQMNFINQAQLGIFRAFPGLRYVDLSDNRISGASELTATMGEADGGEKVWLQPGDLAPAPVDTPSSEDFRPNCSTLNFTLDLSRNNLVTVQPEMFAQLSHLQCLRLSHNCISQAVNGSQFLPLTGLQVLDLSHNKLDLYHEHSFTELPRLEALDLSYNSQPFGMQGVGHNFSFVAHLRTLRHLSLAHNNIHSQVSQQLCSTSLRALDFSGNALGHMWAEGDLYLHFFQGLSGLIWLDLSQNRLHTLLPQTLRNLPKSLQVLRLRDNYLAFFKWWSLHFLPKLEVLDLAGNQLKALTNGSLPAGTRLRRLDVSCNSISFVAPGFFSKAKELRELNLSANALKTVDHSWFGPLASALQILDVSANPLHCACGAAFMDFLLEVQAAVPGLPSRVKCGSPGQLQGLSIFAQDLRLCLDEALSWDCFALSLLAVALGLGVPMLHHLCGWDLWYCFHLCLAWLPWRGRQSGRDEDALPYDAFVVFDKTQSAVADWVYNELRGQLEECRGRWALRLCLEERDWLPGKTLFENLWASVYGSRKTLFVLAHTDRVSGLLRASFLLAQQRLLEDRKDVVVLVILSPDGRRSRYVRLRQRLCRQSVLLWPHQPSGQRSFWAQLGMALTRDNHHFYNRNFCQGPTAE
Experiment: TLR9 inhibition reporter assay (HEK-Blue SEAP)
Conditions: read-out: TLR9 IC50; HEK-Blue cells overexpressing human TLR9, ODN2006 5 nM stimulation, SEAP reporter

Compound: COc1cc(-c2[nH]c3cnc(N4CC5(CN(C(=O)CN6CCOCC6)C5)C4)c(F)c3c2C(C)C)cn2ncnc12 [Example 367]
Assay Target: human TLR9 (Homo sapiens (Human))
IC50: > 50 µM

Compound: COc1cc(-c2[nH]c3cnc(N4CCN(CC(N)=O)C[C@H]4C)c(F)c3c2C(C)C)cn2ncnc12 [Example 447]
Assay Target: human TLR9 (Homo sapiens (Human))
IC50: > 50 µM

Compound: COc1cc(-c2[nH]c3cnc(N4CCN(C5CCCOC5)CC4)c(F)c3c2C(C)C)cn2ncnc12 (single isomer, unassigned) [Example 386]
Assay Target: human TLR9 (Homo sapiens (Human))
IC50: > 50 µM

Compound: CCN(CCC#N)C1CCN(c2ncc3[nH]c(-c4cc(C)c5ncnn5c4)c(C(C)C)c3c2C)CC1 [Example 286]
Assay Target: human TLR9 (Homo sapiens (Human))
IC50: 2.86 µM

* * *

Biological target: human TLR9 (Homo sapiens (Human))
Test: TLR9 inhibition reporter assay (HEK-Blue SEAP);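 further: SEAP driven by IFN-β minimal promoter carrying five NF-κB and AP-1 sites, 22 h at 37 °C, compounds 0.05 nM–50 µM, inhibition scaled between agonist-plus-DMSO and reference-inhibitor wells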
Conditions: read-out: TLR9 IC50; HEK-Blue cells overexpressing human TLR9, ODN2006 5 nM stimulation, SEAP reporter
pIC50: −log10 of the molar value.

Compound: COc1cc(-c2[nH]c3cnc(N4CCN(C5CCCOC5)CC4)c(F)c3c2C(C)C)cn2ncnc12 (single isomer, unassigned) [Example 387]
Assay Target: human TLR9 (Homo sapiens (Human))
Comparison Sign: <
pIC50: 4.30
//
Compound: Cc1c(-c2[nH]c3cnc(N4CC5(CN(CC(F)(F)F)C5)C4)c(F)c3c2C(C)C)cn2ncnc2c1C [Example 434]
Assay Target: human TLR9 (Homo sapiens (Human))
Comparison Sign: <
pIC50: 4.30
//
Compound: COc1cc(-c2[nH]c3cnc(N4CCN(CC(=O)N5CCOCC5)C[C@H]4C)c(F)c3c2C(C)C)cn2ncnc12 [Example 448]
Assay Target: human TLR9 (Homo sapiens (Human))
Comparison Sign: <
pIC50: 4.30
//
Compound: Cc1c(-c2[nH]c3cnc(N4CCC(N5CC6(COC6)C5)CC4)c(F)c3c2C(C)C)cn2ncnc2c1C [Example 111]
Assay Target: human TLR9 (Homo sapiens (Human))
Comparison Sign: =
pIC50: 5.52
//
Compound: COc1cc(-c2[nH]c3cnc(N4CCC(NC(C)C(C)C)CC4)cc3c2C(C)C)cn2ncnc12 (centres unmarked) [Example 313]
Assay Target: human TLR9 (Homo sapiens (Human))
Comparison Sign: =
pIC50: 5.62
